The origin of these recorded values is patent US20260242478A1.

tgt: T1, Anti-PSMA Fab (biotinylated (site not stated))
T1 construct: Biotinylated PSMA Fab captured on neutravidin coated plates; also called 006 PSMA Fab
assayOverview: clonal phage ELISA on plate-captured biotinylated PSMA Fab, blocking buffer alone
experimentalEndpoint: Phage binding ELISA signal, Anti-PSMA Fab

1. LVSWCTPPWMCEGV (tested as crude clonal phage supernatant) [Phage-3961] ... 0.818
2. TAPWCQPRWMCDGF (tested as crude clonal phage supernatant) [Phage-3958] ... 0.828
3. FDGWCVPAWMCYPF (tested as crude clonal phage supernatant) [Phage-3962] ... 0.816
4. EGGYCVPTWMCSGF (tested as crude clonal phage supernatant) [Phage-3960] ... 0.822
5. MATMCVPQWMCAGF (tested as crude clonal phage supernatant) [Phage-3965] ... 0.814
6. GSVFCIPTWMCEQS (tested as crude clonal phage supernatant) [Phage-3966] ... 0.813
7. AEMLCVPPWMCKAF (tested as crude clonal phage supernatant) [Phage-3959] ... 0.823
8. ITRMCTPSWMCMSF (tested as crude clonal phage supernatant) [Phage-3964] ... 0.814
9. YERVCVPSWMCNSL (tested as crude clonal phage supernatant) [Phage-3955] ... 0.838
10. ISAECRPPWMCIGF (tested as crude clonal phage supernatant) [Phage-3963] ... 0.815
11. TIQWCEPLWMCRGF (tested as crude clonal phage supernatant) [Phage-3957] ... 0.835
12. GLPQCVPPWMCDGF (tested as crude clonal phage supernatant) [Phage-3953] ... 0.864
13. DVLMCKPEWMCLGY (tested as crude clonal phage supernatant) [Phage-3956] ... 0.837
14. FFQVCEPQWMCLGF (tested as crude clonal phage supernatant) [Phage-3954] ... 0.854
